test system: T cell lymphomas; test: Inhibition of T cell lymphomas, live cells counted by flow cytometry; type: cell-based, mouse; settings: Mus musculus, T-cell, 96 h, Lymphoma 4; 4 days growth
pEC50: −log10 of the molar value.
metric: pEC50

>>> obsvalue("CC(C)(C)c1ccc(Oc2ccc(N)cc2)cc1")
"> 7.00"

====

biological target: PKC eta (Homo sapiens); construct: expressed in transfected cells; host or cells: yeast (XenoGene strain); test: XenoGene counter-screen, PKC eta; type: cell-based; conditions: inverse of (PKC-theta IC50)/(PKC-X IC50)
Sequence (P24723 whole entry): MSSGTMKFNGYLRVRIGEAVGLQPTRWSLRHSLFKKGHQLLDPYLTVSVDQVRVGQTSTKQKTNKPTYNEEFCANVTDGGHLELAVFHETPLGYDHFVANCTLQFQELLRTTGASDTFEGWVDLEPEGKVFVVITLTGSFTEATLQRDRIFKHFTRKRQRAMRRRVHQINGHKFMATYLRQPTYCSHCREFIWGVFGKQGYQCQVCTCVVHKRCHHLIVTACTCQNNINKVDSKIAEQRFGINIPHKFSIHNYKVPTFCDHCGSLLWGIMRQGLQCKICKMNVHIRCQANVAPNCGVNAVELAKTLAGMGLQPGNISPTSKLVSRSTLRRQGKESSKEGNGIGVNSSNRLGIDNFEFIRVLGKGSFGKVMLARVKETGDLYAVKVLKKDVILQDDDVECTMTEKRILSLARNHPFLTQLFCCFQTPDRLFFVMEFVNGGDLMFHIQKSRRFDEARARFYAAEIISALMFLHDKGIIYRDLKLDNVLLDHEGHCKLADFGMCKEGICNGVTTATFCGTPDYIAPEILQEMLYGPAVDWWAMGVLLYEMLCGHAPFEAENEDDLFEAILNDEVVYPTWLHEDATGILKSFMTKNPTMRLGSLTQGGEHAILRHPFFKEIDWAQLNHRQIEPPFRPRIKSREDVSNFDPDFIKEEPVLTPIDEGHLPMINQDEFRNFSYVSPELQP
metric: Selectivity for PKC-theta v. PKC-eta

>>> obsvalue("CC(C)(C)c1ccc(Sc2ccc(N)cc2)cc1")
3.0
>>> obsvalue("CC(C)(C)c1ccc(Oc2ccc(N)cc2)cc1")
0.36
>>> obsvalue("Cc1cc(Oc2ccc(N)cc2)ccc1Cl")
3.0
>>> obsvalue("Nc1ccc(Sc2ccc(C(F)(F)F)cc2)cc1")
4.0
>>> obsvalue("Nc1ccc(Oc2cc(Cl)cc(Cl)c2)cc1")
1.8
>>> obsvalue("Nc1ccc(Oc2ccc(Cl)cc2Cl)cc1")
0.63
